Molecular target: yIre1 (Saccharomyces cerevisiae, UniProt P32361)
Construct: GST (N); made in house; host or cells: E. coli BL21 CodonPlus (RIPL)
Sequence (P32361 with tags, fused parts or gaps limits assumed): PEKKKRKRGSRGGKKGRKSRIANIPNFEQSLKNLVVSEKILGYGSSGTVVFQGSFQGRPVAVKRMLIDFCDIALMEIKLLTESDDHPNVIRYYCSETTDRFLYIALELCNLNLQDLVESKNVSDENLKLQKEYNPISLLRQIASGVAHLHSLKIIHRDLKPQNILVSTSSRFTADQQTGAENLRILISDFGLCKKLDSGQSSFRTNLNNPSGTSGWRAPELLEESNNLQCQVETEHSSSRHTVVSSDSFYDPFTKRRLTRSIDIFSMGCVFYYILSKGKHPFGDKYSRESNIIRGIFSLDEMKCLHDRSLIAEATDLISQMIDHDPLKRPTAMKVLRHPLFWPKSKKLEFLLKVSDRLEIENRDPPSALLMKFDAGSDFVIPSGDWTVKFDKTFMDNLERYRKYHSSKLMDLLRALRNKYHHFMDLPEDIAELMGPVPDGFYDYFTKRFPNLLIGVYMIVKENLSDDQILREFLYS
Assay: RNA cleavage-based yIre1 activation assay
Type: biochemical, yeast
Parameters: unit not given here
Details: 3 μM yIre1, stem loop RNA, 15 μM effector
In this section, each of the molecules is paired with its reported RNA cleavage (yIre1 activation).
# answer = number (no unit)

Given the molecule Cc1ccc(-c2cc(Nc3nc(Nc4ccc(CC#N)cc4)nc4ccccc34)[nH]n2)s1 [APY85] , write its reported RNA cleavage (yIre1 activation).
0.003287

Please report the measured RNA cleavage (yIre1 activation) for N#CCc1ccc(Nc2nccc(Nc3cc(-c4cccs4)n[nH]3)n2)cc1 [APY84]
0.004672

Return reported RNA cleavage (yIre1 activation). Input molecule: OCCc1ccc(Nc2nccc(Nc3cc(C4CCCC4)n[nH]3)n2)cc1 [APY76]
0.03994

* * *

Target: yIre1 (Saccharomyces cerevisiae)
Construct: GST (N); made in house; host or cells: E. coli BL21 CodonPlus (RIPL)
Experiment: RNA cleavage-based yIre1 activation assay
Type: biochemical, yeast
Design: unit not given here
Conditions: 3 μM yIre1, stem loop RNA, 15 μM effector
Description: The RNase Cleavage Assay. RNA cleavage reactions were conducted at 30° C. in buffer containing 20 mM HEPES (pH 7.5), 70 mM NaCl, 2 mM ADP (pH 7.0), 2 mM Mg(OAc)2, 5 mM DTT, 5% glycerol, less than 1 nM ^32p-labeled RNA substrate, and 3 nM-20 μM Ire1. Reaction solutions and buffers were designed using Biochem Lab Solutions 3.5. […] The screens were scanned on a Storm or a Typhoon instrument and quantified using ImageQuant 5.0 or GelQuant.NET 1.4 programs. […]
Values of RNA cleavage (yIre1 activation) greater than or equal to 0.002 map to yes (1); values below map to no (0).

Below are worked cases with known answers.
1) N#CCc1ccc(Nc2nc(Nc3cc(C4CCC4)n[nH]3)c3ccccc3n2)cc1	yes (1)
2) N#CCc1ccc(Nc2nccc(Nc3cc(C4CCC4)n[nH]3)n2)cc1	yes (1)
3) CC(=O)Nc1ccc(Nc2nccc(Nc3cc(C4CCCC4)n[nH]3)n2)cc1	no (0)
4) Cc1cc(Nc2cc(C3CCC3)n[nH]2)nc(Nc2ccc(CC#N)cc2)n1	yes (1)
5) N#CCc1ccc(Nc2nccc(Nc3cc(C4CCCCC4)n[nH]3)n2)cc1	no (0)

Then there is this compound:
Could you verify whether the entry Cc1cc(Nc2cc(C3CC3)n[nH]2)nc(Nc2ccc(CC#N)cc2)n1 shows RNA cleavage (yIre1 activation) of no less than 0.002?
yes (1)
